System: SF-539 CNS
Test: NCI tumour cell line growth inhibition, 48 h
assay_readout: TGI

| compound | value_measured |
| --- | --- |
| OCc1ccc(C2CC(c3ccco3)=NN2c2ccccc2)o1 (configuration not stated) | > 100 µM |
| Nc1nc(Cl)cc(NCC2(CO)CCCC2)n1 | > 100 µM |
| CC(=O)NC1c2ccccc2C(C)(C)C12CCC1(CC2)OCCO1 (configuration not stated) | > 100 µM |
| CC1CCCC(CC(=O)O)(CC(=O)O)C1 (configuration not stated) | > 100 µM |
| O=c1c(C(c2ccc(Cl)cc2)c2c(O)c3ccccc3n(-c3ccccc3)c2=O)c(O)c2ccccc2n1-c1ccccc1 | > 100 µM |
| O=C1/C(=C/c2cccc([N+](=O)[O-])c2)COc2ccc(Br)cc21 | > 100 µM |
| Cn1c2ccccc2c(=NNc2cccc(C(=O)O)c2)c2ccccc21 | 46.9 µM |
| O=c1cccc(C#CC#CC2=CCCCC2)o1 | 3.04 µM |
| O=C(Nc1c(Cl)cc([N+](=O)[O-])cc1Cl)C(=O)C(C1OC(=O)c2ccccc21)[N+](=O)[O-] (configuration not stated) | > 100 µM |
| C/C(N=NC(=S)N(C)C)=C1\C=CC=CN1O | > 100 µM |
| COc1ccc(/C=C/C(=O)C(CC2CCC2)C(=O)/C=C/c2ccc(OC)c(OC)c2)cc1OC | 3.57 µM |
| CC(C)C[C@H](NC(=O)/C=C/Cn1ccc2ccccc2c1=O)B(O)O | 6.45 µM |
| N#Cc1cccnc1Cl | > 100 µM |
| O=C1CCCC[C@H]1[C@H]1CCC[C@@H]([C@H]2CCCCC2=O)C1=O | > 100 µM |
| CCSc1nc(SCC)c2cn[nH]c2n1 | 82.9 µM |
| Cc1ccc(O)c(-c2cscn2)c1 | > 100 µM |
| O=c1c2cc(Br)cc(Br)c2nc(CCCl)n1CCO | > 100 µM |
| COc1ccc(NS(=O)(=O)c2ccc(NC(NC(=O)CC(C)C)(C(F)(F)F)C(F)(F)F)cc2)nn1 | > 100 µM |
| C#Cc1c(I)n(C2OC(CO[Si](C)(C)C(C)(C)C)C3OC(C)(C)OC32)c(=O)[nH]c1=O (configuration not stated) | 31.4 µM |
| Nc1ccc2cc3ccc(N)cc3nc2c1 | 4.54 µM [middle of 4 runs] |
| CC(=O)O[C@H]1CC[C@@]2(C)C(=CC[C@H]3[C@@H]4C[C@H](N5CCOCC5)[C@H](OC(C)=O)[C@@]4(C)CC[C@@H]32)C1 | > 100 µM |
| Cc1ncc(CCCN(C)C)cc1Nc1ncc2c(n1)-c1ccc(C(F)(F)F)cc1NC(=S)C2 | 0.11 µM |
| Cc1ccc(-c2nc3ccc(Cl)cc3c(=O)n2N2C(=O)CSC2c2ccccc2Cl)cc1 (configuration not stated) | > 100 µM |
| Cn1c(COC(=O)Nc2ccccc2)c(COC(=O)Nc2ccccc2)c2ccc3cc(Cl)c(Cl)cc3c21 | 44.6 µM |
| COc1cc(C(=O)c2cc(C)c3[nH]c4ccc(C)cc4c3c2C)cc(OC)c1OC | < 0.01 µM |
| Cc1cc(NCc2ccccc2)c2ccccc2[n+]1CCCCCCCCCC[n+]1c(C)cc(NCc2ccccc2)c2ccccc21 | 1.13 µM |
| CSc1cnc2ccccc2c1SC1CN(Cc2ccccc2)c2ccccc2C1=O (configuration not stated) | > 100 µM |
